# target-system: human TLR8 (Homo sapiens, UniProt Q9NR97)
# Construct: host or cells: HEK-Blue cells
# Sequence (Q9NR97 27-1041): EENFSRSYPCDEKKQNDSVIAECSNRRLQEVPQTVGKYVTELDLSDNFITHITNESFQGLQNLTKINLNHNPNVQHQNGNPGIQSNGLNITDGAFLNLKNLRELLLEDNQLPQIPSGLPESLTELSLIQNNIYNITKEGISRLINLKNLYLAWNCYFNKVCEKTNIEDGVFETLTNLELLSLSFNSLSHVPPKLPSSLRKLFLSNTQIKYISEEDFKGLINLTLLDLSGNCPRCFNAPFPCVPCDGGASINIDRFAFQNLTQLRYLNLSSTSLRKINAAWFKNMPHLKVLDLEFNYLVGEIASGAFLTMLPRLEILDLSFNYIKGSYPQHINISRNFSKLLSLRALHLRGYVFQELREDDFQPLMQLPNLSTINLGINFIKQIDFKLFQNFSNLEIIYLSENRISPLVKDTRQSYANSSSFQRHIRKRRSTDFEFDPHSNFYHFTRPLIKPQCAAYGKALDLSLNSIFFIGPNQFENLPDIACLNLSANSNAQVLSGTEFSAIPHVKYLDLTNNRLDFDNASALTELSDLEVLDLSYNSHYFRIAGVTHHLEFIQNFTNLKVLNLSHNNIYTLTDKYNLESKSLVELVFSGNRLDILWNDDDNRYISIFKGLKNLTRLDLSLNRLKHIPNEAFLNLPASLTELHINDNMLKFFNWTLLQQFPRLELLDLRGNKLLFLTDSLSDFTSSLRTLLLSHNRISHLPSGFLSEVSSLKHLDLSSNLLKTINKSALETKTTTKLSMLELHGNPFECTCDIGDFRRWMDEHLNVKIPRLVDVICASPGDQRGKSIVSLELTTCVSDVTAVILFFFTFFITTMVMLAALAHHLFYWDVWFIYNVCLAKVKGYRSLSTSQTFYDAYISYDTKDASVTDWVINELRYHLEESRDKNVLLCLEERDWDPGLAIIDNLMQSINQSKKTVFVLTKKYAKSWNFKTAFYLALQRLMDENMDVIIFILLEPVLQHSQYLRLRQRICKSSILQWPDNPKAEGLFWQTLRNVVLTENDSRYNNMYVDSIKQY
# experiment-notes: TLR8 inhibition reporter assay (HEK-Blue, SEAP)
# Format: cell-based
# details: HEK-Blue cells overexpressing human TLR8, R848 15.9 μM, 22 hour incubation
result-type: IC50 (nM)

compound	target-system	units-of-measure	quantitative-readout
Cc1c(-c2[nH]c3ccc(C4CCN(Cc5ncn(C)n5)CC4)cc3c2C(C)C)cn2cnnc2c1C	human TLR8 (Homo sapiens, UniProt Q9NR97)	nM	8.1
CNC(=O)CN1CCC(c2ccc3[nH]c(-c4cc(C)c5nncn5c4)c(C(C)C)c3c2)CC1	human TLR8 (Homo sapiens, UniProt Q9NR97)	nM	10.2
Cc1cc(-c2[nH]c3ccc(C4CCN(CC#N)CC4)cc3c2C(C)C)cn2c(C)nnc12	human TLR8 (Homo sapiens, UniProt Q9NR97)	nM	12.8
Cc1c(-c2[nH]c3ccc(C4CCN(C5CCC(F)(F)CC5)CC4)cc3c2C(C)C)cn2cnnc2c1C	human TLR8 (Homo sapiens, UniProt Q9NR97)	nM	12.4
Cc1c(-c2[nH]c3ccc(C4CCN(C5CC(C)OC(C)C5)CC4)cc3c2C(C)C)cn2cnnc2c1C (stereo not shown) [Example 87]	human TLR8 (Homo sapiens, UniProt Q9NR97)	nM	12.8

[A] Cc1c(-c2[nH]c3ccc(C4CCN(CCS(C)(=O)=O)CC4)cc3c2C(C)C)cn2cnnc2c1C
[B] Cc1c(-c2[nH]c3ccc(C4CCN(CC5(C)COC5)CC4)cc3c2C(C)C)cn2cnnc2c1Cl
[C] CC(C)c1c(-c2ccc3nncn3c2)[nH]c2ccc(C3CCN(Cc4ncn(C)n4)CC3)cc12
[D] Cc1c(-c2[nH]c3ccc(C4CCNCC4)cc3c2C(C)C)cn2cnnc2c1Cl
Would you mind ranking these compounds by ascending IC50? Thanks in advance for listing the labels in the requested order. A, B, D, C

---

# target-system: human TLR9 (Homo sapiens, UniProt Q9NR96)
# experiment-notes: TLR9 inhibition reporter assay (HEK-Blue, SEAP)
# details: HEK-Blue cells overexpressing human TLR9, ODN2006 5 nM, 22 hour incubation
pIC50: −log10 of the molar value.
result-type: pIC50

molecule	pIC50
CNC(=O)CN1CCC(c2ccc3[nH]c(-c4ccc5nncn5c4)c(C(C)C)c3c2)CC1	5.96
COc1cc(-c2[nH]c3ccc(C4CCN(CCCC(F)(F)F)CC4)cc3c2C(C)C)cn2cnnc12	5.96
Cc1cc(-c2[nH]c3ccc(C4CCN(Cc5ccn(C)n5)CC4)cc3c2C(C)C)cn2cnnc12	6.04
Cc1c(-c2[nH]c3ccc(C4CCN(CCN5CCCS5(=O)=O)CC4)cc3c2C(C)C)cn2cnnc2c1C	5.89
Cc1c(-c2[nH]c3ccc(C4C[C@H]5CC[C@@H](C4)N5)cc3c2C(C)C)cn2cnnc2c1C (single isomer, unassigned) [Example 116]	5.95

---

# target-system: human TLR9 (Homo sapiens, UniProt Q9NR96)
# Sequence (Q9NR96 26-1032): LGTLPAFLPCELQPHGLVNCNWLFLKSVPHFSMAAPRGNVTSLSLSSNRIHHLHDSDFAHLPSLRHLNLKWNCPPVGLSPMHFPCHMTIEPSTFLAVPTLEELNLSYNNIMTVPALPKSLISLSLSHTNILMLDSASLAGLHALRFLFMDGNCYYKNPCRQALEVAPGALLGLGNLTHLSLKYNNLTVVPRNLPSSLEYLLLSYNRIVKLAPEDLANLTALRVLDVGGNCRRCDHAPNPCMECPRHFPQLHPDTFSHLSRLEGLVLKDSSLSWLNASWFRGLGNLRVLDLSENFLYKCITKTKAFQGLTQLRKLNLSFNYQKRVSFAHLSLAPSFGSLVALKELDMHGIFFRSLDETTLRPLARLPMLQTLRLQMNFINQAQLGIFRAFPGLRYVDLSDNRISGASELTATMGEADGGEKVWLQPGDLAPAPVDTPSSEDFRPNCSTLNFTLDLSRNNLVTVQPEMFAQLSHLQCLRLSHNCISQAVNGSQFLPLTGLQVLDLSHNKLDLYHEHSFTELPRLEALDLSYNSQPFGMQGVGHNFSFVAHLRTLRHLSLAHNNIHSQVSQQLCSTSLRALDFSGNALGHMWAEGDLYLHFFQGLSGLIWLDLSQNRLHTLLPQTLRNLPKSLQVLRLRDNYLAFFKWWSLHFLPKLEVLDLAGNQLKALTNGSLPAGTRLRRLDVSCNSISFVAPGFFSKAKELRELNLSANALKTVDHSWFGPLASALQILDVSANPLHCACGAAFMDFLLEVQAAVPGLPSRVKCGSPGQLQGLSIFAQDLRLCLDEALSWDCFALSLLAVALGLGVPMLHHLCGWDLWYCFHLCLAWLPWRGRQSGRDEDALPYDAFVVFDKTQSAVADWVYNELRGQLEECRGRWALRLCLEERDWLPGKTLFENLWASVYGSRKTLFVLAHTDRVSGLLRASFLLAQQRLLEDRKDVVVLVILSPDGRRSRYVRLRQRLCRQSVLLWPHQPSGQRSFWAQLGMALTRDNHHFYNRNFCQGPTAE
# experiment-notes: TLR9 inhibition reporter assay (HEK-Blue, SEAP)
# details: HEK-Blue cells overexpressing human TLR9, ODN2006 5 nM, 22 hour incubation
result-type: IC50 (µM)

molecule	units-of-measure	IC50
Cc1c(-c2[nH]c3ccc(C4CC(C)N(CC(=O)N(C)C)C(C)C4)cc3c2C(C)C)cn2cnnc2c1C (stereo not shown)	µM	7.42
Cc1c(-c2[nH]c3ccc(C4C[C@H]5CC[C@@H](C4)N5)cc3c2C(C)C)cn2cnnc2c1C (single isomer, unassigned) [Example 117]	µM	6.09

[P] Cc1cc(-c2[nH]c3ccc(C4CCN(CC#N)CC4)cc3c2C(C)C)cn2c(C)nnc12
[Q] CNC(=O)CN1CCC(c2ccc3[nH]c(-c4ccc5nncn5c4C)c(C(C)C)c3c2)CC1
Hey, between P and Q which has a smaller measured IC50? Response format: the label of the selected entry. P
